System: NCI-H358 (K-Ras G12C)
measurement_protocol: CellTiter-Glo cell viability assay, NCI-H358
Format: cell-based, human
experimental_conditions: Homo sapiens, NCI-H358, 120 h, NCI-H358, 5-day treatment; class symbols; read-out: Additional H358 Cell Viability assay data (K-Ras G12C, IC50)
pIC50: −log10 of the molar value.

{"columns": ["molecule", "pIC50"],
 "data": [
  ["C=CC(=O)N1CC(OC[C@H](C(=O)N[C@H]2Cc3cccc(c3)-c3ccc4c(c3)c(c(-c3cccnc3[C@H](C)OC)n4CC(F)(F)F)CC(C)(C)COC(=O)[C@@H]3CCCN(N3)C2=O)C(C)C)C1 (atropisomer, axis not shown) [Example A344]", "> 8.00"],
  ["C=CC(=O)N1CC[C@H](C(=O)N(C)[C@H](C(=O)NC2C[C@@H]3CN(CCO3)c3ccc4c(c3)c(c(-c3cccnc3[C@H](C)OC)n4CC)CC(C)(C)COC(=O)[C@@H]3CCCN(N3)C2=O)C(C)C)C1 (some centres unmarked) [Example A312]", "< 6.00"]
]}

###

measured_target: NRAS G12C (Homo sapiens (Human), UniProt P01111+P62937, G12C)
Sequence (P01111 whole entry G12C): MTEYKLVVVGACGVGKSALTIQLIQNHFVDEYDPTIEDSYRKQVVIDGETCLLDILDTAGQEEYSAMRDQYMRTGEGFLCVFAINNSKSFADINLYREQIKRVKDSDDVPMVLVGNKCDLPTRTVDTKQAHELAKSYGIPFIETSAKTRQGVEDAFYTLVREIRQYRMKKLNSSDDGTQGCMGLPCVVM
Sequence (P62937 whole entry): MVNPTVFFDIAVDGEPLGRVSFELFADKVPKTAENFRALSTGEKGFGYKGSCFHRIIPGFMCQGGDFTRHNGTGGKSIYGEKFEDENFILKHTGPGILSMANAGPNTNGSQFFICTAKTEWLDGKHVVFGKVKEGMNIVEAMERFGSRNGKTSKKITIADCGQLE
measurement_protocol: Ras-Raf (BRAF RBD) disruption / FRET / MOA assay, NRAS G12C
Assay type: biochemical
experimental_conditions: read-out: IC50* NRAS G12C FRET data
reported_metric: IC50

{"columns": ["molecule", "test_value"],
 "data": [
  ["C=CC(=O)N1CC[C@H](C(=O)N(C)[C@H](C(=O)N[C@H]2Cc3cc(O)cc(c3)-c3ccc4c(c3)c(c(-c3ccncc3CN(C)C)n4CC)CC(C)(C)COC(=O)[C@@H]3CCCN(N3)C2=O)C(C)C)C1 [Example A128]", "10 to 100 nM"],
  ["C=CC(=O)N1CC2(C1)CN(C(=O)N(C)[C@H](C(=O)N[C@H]1Cc3nc(cs3)-c3ccc4c(c3)c(c(-c3cccnc3[C@H](C)OC)n4CC)CC(C)(C)COC(=O)[C@@H]3CCCN(N3)C1=O)C(C)C)CCO2 (atropisomer, axis not shown) [Example A431]", "100 to 1000 nM"],
  ["C=CC(=O)N(C)CC(=O)N(C)[C@H](C(=O)N[C@H]1Cc2cc(O)cc(c2)-c2ccc3c(c2)c(c(-c2cccnc2COC)n3CC)CC(C)(C)COC(=O)[C@@H]2CCCN(N2)C1=O)C(C)C [Example A147]", "100 to 1000 nM"],
  ["CCn1c(-c2cccnc2)c2c3cc(ccc31)-c1cc(O)cc(c1)C[C@H](NC(=O)[C@H](C(C)C)N(C)C(=O)[C@H]1CCN(C(=O)C#CCN(C)C)C1)C(=O)N1CCC[C@H](N1)C(=O)OCC(C)(C)C2 [Example A142]", "10 to 100 nM"],
  ["CCn1c(-c2cccnc2[C@H](C)OC)c2c3cc(ccc31)N1CCO[C@@H](C[C@H](NC(=O)[C@@H](COC3CCN(C(=O)C#CC(C)(C)N(C)C)CC3)C(C)C)C(=O)N3CCC[C@H](N3)C(=O)OCC(C)(C)C2)C1 (atropisomer, axis not shown) [Example A643]", "10 to 100 nM"],
  ["CCn1c(-c2cnccc2COC)c2c3cc(ccc31)-c1cc(O)cc(c1)C[C@H](NC(=O)[C@H](C(C)C)N(C)C(=O)[C@H]1CCN(C(=O)C(C)(C)N(C)C)C1)C(=O)N1CCC[C@H](N1)C(=O)OCC(C)(C)C2 [Example A153]", "10 to 100 nM"],
  ["CCn1c(-c2cccnc2[C@H](C)OC)c2c3cc(ccc31)-c1cccc(c1)C[C@H](NC(=O)[C@H](C(C)C)N1CC[C@@]3(CCN(C(=O)C#C[C@H]4COCCN4C4COC4)C3)C1=O)C(=O)N1CCC[C@H](N1)C(=O)OCC(C)(C)C2 (atropisomer, axis not shown) [Example A567]", "10 to 100 nM"],
  ["CCn1c(-c2cncnc2)c2c3cc(ncc31)-c1cc(O)cc(c1)C[C@H](NC(=O)[C@H](C(C)C)N(C)C(=O)[C@H]1CCN(C(=O)C#CCN(C)C)C1)C(=O)N1CCC[C@H](N1)C(=O)OCC(C)(C)C2 [Example A108]", "< 10 nM"],
  ["CCn1c(-c2cccnc2[C@H](C)OC)c2c3cc(ccc31)-c1cccc(c1)C[C@H](NC(=O)[C@H](C(C)C)N1CCC3(CN(C(=O)C#CC(C)(C)N(C)C)C3)C1=O)C(=O)N1CCC[C@H](N1)C(=O)OCC(C)(C)C2 (atropisomer, axis not shown) [Example A324]", "< 10 nM"],
  ["C=CC(=O)N1CC[C@]2(CCN([C@H](C(=O)N[C@H]3Cc4cccc(c4)-c4ccc5c(c4)c(c(-c4cccnc4[C@H](C)OC)n5CC)CC(C)(C)COC(=O)[C@@H]4CCCN(N4)C3=O)C(C)C)C2=O)C1 (atropisomer, axis not shown) [Example A470]", "100 to 1000 nM"],
  ["CO[C@@H](C)c1ncccc1-c1c2c3cc(ccc3n1CC(F)(F)F)-c1nc(co1)C[C@H](NC(=O)[C@@H](COC1CN(C(=O)C#CC(C)(C)N(C)C)C1)C(C)C)C(=O)N1CCC[C@H](N1)C(=O)OCC(C)(C)C2 (atropisomer, axis not shown) [Example A674]", "10 to 100 nM"],
  ["C=CC(=O)N1CC[C@H](C(=O)N(C)[C@H](C(=O)N[C@H]2Cc3cc(C)cc(c3)-c3ccc4c(c3)c(c(-c3cccnc3[C@H](C)OC)n4CC)CC(C)(C)COC(=O)[C@@H]3CCCN(N3)C2=O)C(C)C)C1 (atropisomer, axis not shown) [Example A498]", "100 to 1000 nM"],
  ["C=CC(=O)Nc1csc(C(=O)N(C)[C@H](C(=O)N[C@H]2Cc3cc(O)cc(c3)-c3ccc4c(c3)c(c(-c3cccnc3[C@H](C)OC)n4CC)CC(C)(C)COC(=O)[C@@H]3CCCN(N3)C2=O)C(C)C)n1 (atropisomer, axis not shown) [Example A259]", "100 to 1000 nM"],
  ["C=CS(=O)(=O)N1CCC(C(=O)N(C)[C@H](C(=O)N[C@H]2Cc3nc(cs3)-c3ccc4c(c3)c(c(-c3cncnc3)n4CC)CC(C)(C)COC(=O)[C@@H]3CCCN(N3)C2=O)C(C)C)C1 (single isomer, unassigned) [Example A170]", "1000 to 10000 nM"],
  ["CCn1c(-c2cccnc2[C@H](C)OC)c2c3cc(ccc31)-c1cc(O)cc(c1)C[C@H](NC(=O)[C@H](C(C)C)N(C)C(=O)[C@H]1CCN(C(=O)/C=C/C(F)(F)F)C1)C(=O)N1CCC[C@H](N1)C(=O)OCC(C)(C)C2 [Example A527]", "< 10 nM"],
  ["CCn1c(-c2cccnc2[C@H](C)OC)c2c3cc(ccc31)-c1cccc(c1)C[C@H](NC(=O)C(COC1CN(C(=O)C#CC(C)(C)N(C)C)C1)C(C)C)C(=O)N1CCC[C@H](N1)C(=O)OCC(C)(C)C2 (stereo partly shown) [Example A316]", "< 10 nM"]
]}

Attribution: patent US11566007B2
